testedSystem: huCTLA4 (Homo sapiens, UniProt P16410)
Sequence (P16410 36-223): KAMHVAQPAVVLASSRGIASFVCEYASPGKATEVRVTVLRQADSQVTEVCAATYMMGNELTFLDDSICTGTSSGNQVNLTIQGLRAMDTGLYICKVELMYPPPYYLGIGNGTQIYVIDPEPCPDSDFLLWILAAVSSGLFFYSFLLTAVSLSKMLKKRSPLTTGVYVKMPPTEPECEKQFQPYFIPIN
assayComment: Flow binding to CHO cells stably expressing CTLA4
Set-up: huCTLA4 and huPD-L1, full-length mammalian surface expression constructs were generated; expressed in transfected cells; host or cells: CHO cells, lentiviral transduction, sorted to >98% purity
experimentalParameters: Table E19; CHO cells stably expressing CTLA4; 33.3 nM
testReadout: CTLA4 MFI at 33.3 nM

1. E35D/D46V/M47L/L85Q (protein) VIHVTKEVKEVATLSCGHNVSVEELAQTRIYWQKDKKMVLTMMSGVLNIWPEYKNRTIFDITNNLSIVILALRPSDEGTYECVVQKYEKDAFKREHLAEVTLSVKAD	38150
2. E35D/M47V/K89N (protein) VIHVTKEVKEVATLSCGHNVSVEELAQTRIYWQKDKKMVLTMMSGDVNIWPEYKNRTIFDITNNLSIVILALRPSDEGTYECVVLKYENDAFKREHLAEVTLSVKAD	39282
3. D46V/M47L/V68M (protein) VIHVTKEVKEVATLSCGHNVSVEELAQTRIYWQKEKKMVLTMMSGVLNIWPEYKNRTIFDITNNLSIMILALRPSDEGTYECVVLKYEKDAFKREHLAEVTLSVKAD	34688
4. E35D/N48K/V68M (protein) VIHVTKEVKEVATLSCGHNVSVEELAQTRIYWQKDKKMVLTMMSGDMKIWPEYKNRTIFDITNNLSIMILALRPSDEGTYECVVLKYEKDAFKREHLAEVTLSVKAD	33583
5. M47V/N48K (protein) VIHVTKEVKEVATLSCGHNVSVEELAQTRIYWQKEKKMVLTMMSGDVKIWPEYKNRTIFDITNNLSIVILALRPSDEGTYECVVLKYEKDAFKREHLAEVTLSVKAD	44640
6. E35D/M47V/N48K/K89N (protein) VIHVTKEVKEVATLSCGHNVSVEELAQTRIYWQKDKKMVLTMMSGDVKIWPEYKNRTIFDITNNLSIVILALRPSDEGTYECVVLKYENDAFKREHLAEVTLSVKAD	43756
7. D46V/V68M/L85Q (protein) VIHVTKEVKEVATLSCGHNVSVEELAQTRIYWQKEKKMVLTMMSGVMNIWPEYKNRTIFDITNNLSIMILALRPSDEGTYECVVQKYEKDAFKREHLAEVTLSVKAD	7567
